- system tested: WEE1 (Homo sapiens, UniProt P30291+Q96SW2)
- Construct: C-terminal ePL-tagged (DiscoverX, Fremont, CA) full-length WEE1 expression construct; expressed in transfected cells; host or cells: LentiX-HEK293T (Invitrogen), lentiviral transduction; co-expressing GSPT1-GN (G576N, lacking the first 158 amino acids)
- protocol details: WEE1-ePL degradation assay (LentiX-WEE1-ePL-GSPT1-ND cells, InCELL Hunter luminescence, 4 h)
- Assay type: cell-based
- condition: 293T-LentiX WEE1-ePL cells, read-out: 293T-LentiX WEE1-ePL Degradation 4 hr (EC50)
- Procedure: To generate LentiX-WEE1-ePL-GSPT1-ND cells for the WEE1 degradation assay, LentiX-HEK293T (Invitrogen) were transduced by lentivirus with a C-terminal ePL-tagged (DiscoverX, Fremont, CA) full-length WEE1 expression construct. […] Cells were selected and maintained in complete DMEM media (DMEM, 10% Heat Inactivated FBS, 400 μg/mL Geneticin, and 1 μg/mL puromycin at 37 C and 5% CO2). Cells were passaged every 3-4 days by reseeding 1×10^6 cells in a T150 flask. […]
experimental endpoint: DC50 (nM)

Some molecules with recorded DC50:
COc1cncc(CN2CC[C@H](Oc3ccc4c(c3)CN(C3CCC(=O)NC3=O)C4=O)C2)c1 (stereo partly shown) = 61.4
O=C1CCC(N2Cc3cc(O[C@H]4CCN(Cc5ccc6nc([C@@H]7CC[C@H](O)C7)ccc6c5)C4)ccc3C2=O)C(=O)N1 (stereo partly shown) = 3.33

P: O=C1CC[C@H](N2Cc3cc(O[C@H]4CCN(Cc5cc(Cl)c6nc(C7CCOCC7)ccc6c5)C4)ccc3C2=O)C(=O)N1
Q: O=C1CCC(N2Cc3cc(O[C@H]4CCN(Cc5ccnc6ccccc56)C4)ccc3C2=O)C(=O)N1 (stereo partly shown)
stdin: Returns the identifier with the smallest measured DC50 among P and Q . Choose, then provide that item's label.
stdout: P
(P: 1.1 nM, Q: 23.4 nM)

* * *

- system tested: WEE1 (Homo sapiens, UniProt P30291+Q96SW2)
- Construct: C-terminal ePL-tagged (DiscoverX, Fremont, CA) full-length WEE1 expression construct; expressed in transfected cells; host or cells: LentiX-HEK293T (Invitrogen), lentiviral transduction; co-expressing GSPT1-GN (G576N, lacking the first 158 amino acids)
- protocol details: WEE1-ePL degradation assay (LentiX-WEE1-ePL-GSPT1-ND cells, InCELL Hunter luminescence, 4 h)
- Type: cell-based
- condition: 293T-LentiX WEE1-ePL cells, read-out: 293T-LentiX WEE1-ePL Degradation 4 hr (EC50)
experimental endpoint: DC50 (nM)

CO[C@H]1CCN(c2ccc3cc(CN4CC[C@H](Oc5ccc6c(c5)CN(C5CCC(=O)NC5=O)C6=O)C4)ccc3n2)C1 (stereo partly shown) = 3.58
CO[C@@H]1CCN(c2ccc3cc(CN4CC[C@H](Oc5ccc6c(c5)CN(C5CCC(=O)NC5=O)C6=O)C4)ccc3n2)C1 (stereo partly shown) = 2.46
CO[C@@H]1CC[C@H](c2ccc3cc(CN4CC[C@H](Oc5ccc6c(c5)CN(C5CCC(=O)NC5=O)C6=O)C4)ccc3n2)C1 (stereo partly shown) = 2.07
C[C@@H]1CN(Cc2ccc3nc(C4CCOCC4)ccc3c2)C[C@H]1Oc1ccc2c(c1)CN(C1CCC(=O)NC1=O)C2=O (stereo partly shown) = 2.71
COC[C@@H]1CN(Cc2ccc3nc(C4CCN(C(C)=O)CC4)ncc3c2)C[C@H]1Oc1ccc2c(c1)CN([C@H]1CCC(=O)NC1=O)C2=O = 11.9

P: CC1(C)COCCN1c1ccc2cc(CN3CC[C@H](Oc4ccc5c(c4)CN(C4CCC(=O)NC4=O)C5=O)C3)ccc2n1 (stereo partly shown)
Q: N#Cc1ccc2cc(CN3CC[C@H](Oc4ccc5c(c4)CN(C4CCC(=O)NC4=O)C5=O)C3)ncc2c1 (stereo partly shown)
stdin: Lower DC50: P or Q ? The response must carry the label of the picked entry.
stdout: Q

A: Cc1nc2ccccc2cc1CN1CC[C@H](Oc2ccc3c(c2)CN(C2CCC(=O)NC2=O)C3=O)C1 (stereo partly shown)
B: O=C1CCC(N2C(=O)c3ccc(O[C@H]4CCN(Cc5cccc6ncccc56)C4)cc3C2=O)C(=O)N1 (stereo partly shown)
C: O=C1CCC(N2Cc3cc(O[C@H]4CCN(Cc5cc6c(F)cccc6cn5)C4)ccc3C2=O)C(=O)N1 (stereo partly shown)
D: O=C1CCC(N2Cc3cc(O[C@H]4CCN(Cc5cnc6ccccc6n5)C4)ccc3C2=O)C(=O)N1 (stereo partly shown)
E: COC1(c2ccc3cc(CN4CC[C@H](Oc5ccc6c(c5)CN(C5CCC(=O)NC5=O)C6=O)C4)ccc3n2)CCC1 (stereo partly shown)
stdin: Rank ascending by DC50. # output: labels, in the requested order
stdout: E, A, C, D, B
(E: 2.69 nM, A: 8.04 nM, C: 13.3 nM, D: 46.9 nM, B: 79.2 nM)

1: CO[C@H]1CC[C@H](c2ccc3cc(CN4CC[C@H](Oc5ccc6c(c5)CN(C5CCC(=O)NC5=O)C6=O)C4)ccc3n2)C1 (stereo partly shown)
2: O=C1CCC(N2Cc3cc(O[C@H]4CCN(Cc5ccc6nc(C78CCOCC7C8)ccc6c5)C4)ccc3C2=O)C(=O)N1 (stereo partly shown)
stdin: Form field 'greater DC50' accepts 1 or 2 ; which applies? Provide the label of your selected option as the answer.
stdout: 1
(1: 6.19 nM, 2: 3.1 nM)

1: COc1ncc2cc(CN3CC[C@H](Oc4ccc5c(c4)CN(C4CCC(=O)NC4=O)C5=O)C3)ccc2n1 (stereo partly shown)
2: O=C1CC[C@H](N2Cc3cc(O[C@@H]4CN(Cc5ccc6nc(C7CCOCC7)ncc6c5)CC4(F)F)ccc3C2=O)C(=O)N1
stdin: Between 1 and 2 , whose measured DC50 reads higher? Your choice should be expressed through its label.
stdout: 2

* * *

- system tested: WEE1 (Homo sapiens, UniProt P30291+Q96SW2)
- Construct: C-terminal ePL-tagged (DiscoverX, Fremont, CA) full-length WEE1 expression construct; expressed in transfected cells; host or cells: LentiX-HEK293T (Invitrogen), lentiviral transduction; co-expressing GSPT1-GN (G576N, lacking the first 158 amino acids)
- protocol details: WEE1-ePL degradation assay (LentiX-WEE1-ePL-GSPT1-ND cells, InCELL Hunter luminescence, 4 h)
- Format: cell-based
- condition: 293T-LentiX WEE1-ePL cells, lower limit of the fit (Ymin=0 luciferase inhibitor, Ymax DMSO control)
experimental endpoint: 293T-LentiX WEE1-ePL Degradation 4 hr (Ymin)

O=C1CCC(N2Cc3cc(O[C@@H]4CN(Cc5ccc6nc([C@H]7CCOC7)ccc6c5)C[C@@H]4F)ccc3C2=O)C(=O)N1 (some centres unmarked) = 30.72
CC1(C)C[C@@H](c2ccc3cc(CN4CC[C@H](Oc5ccc6c(c5)CN([C@H]5CCC(=O)NC5=O)C6=O)C4)cc(F)c3n2)CCO1 = 28.17
O=C1CCC(N2Cc3cc(O[C@@H]4CN(Cc5ccc6nc([C@@H]7CCOC7)ccc6c5)CC4(F)F)ccc3C2=O)C(=O)N1 (some centres unmarked) = 30.61
O=C1CCC(N2Cc3cc(O[C@H]4CCN(Cc5ccc6nc(C7CCOCC7)ccc6c5)C4=O)ccc3C2=O)C(=O)N1 (some centres unmarked) = 80.98
C[C@@H]1CC(c2ccc3cc(CN4CC[C@H](Oc5ccc6c(c5)CN(C5CCC(=O)NC5=O)C6=O)C4)ccc3n2)C[C@@H](C)O1 (some centres unmarked) = 25.33
O=C1CC[C@H](N2Cc3cc(O[C@H]4CCN(Cc5cc6ccc(C7CCOCC7)nc6cc5F)C4)ccc3C2=O)C(=O)N1 = 29.77
O=C1CC[C@H](N2Cc3cc(O[C@H]4CCN(Cc5cc(C6CC6)c6nc(N7CCOCC7)ncc6c5)C4)ccc3C2=O)C(=O)N1 = 42.1
O=C1CCC(N2Cc3cc(O[C@@H]4CCN(Cc5ccnc6ccccc56)C4)ccc3C2=O)C(=O)N1 (some centres unmarked) = 87.11

A: O=C1CCC(N2Cc3cc(O[C@@H]4CN(Cc5ccc6nc([C@H]7CCOC7)ccc6c5)CC4(F)F)ccc3C2=O)C(=O)N1 (some centres unmarked)
B: O=C1CC[C@H](N2Cc3cc(O[C@H]4CCN(Cc5ccc6nc(N7CCC7)ncc6c5)C4)ccc3C2=O)C(=O)N1
stdin: Endpoint returns whichever of A and B has the numerically higher 293T-LentiX WEE1-ePL Degradation 4 hr (Ymin). Identify your pick by its label.
stdout: B
(B: 45.2, A: 30.81)

* * *

- system tested: WEE1 (Homo sapiens, UniProt P30291+Q96SW2)
- Construct: C-terminal ePL-tagged (DiscoverX, Fremont, CA) full-length WEE1 expression construct; expressed in transfected cells; host or cells: LentiX-HEK293T (Invitrogen), lentiviral transduction; co-expressing GSPT1-GN (G576N, lacking the first 158 amino acids)
- protocol details: WEE1-ePL degradation assay (LentiX-WEE1-ePL-GSPT1-ND cells, InCELL Hunter luminescence, 4 h)
- Assay type: cell-based
- condition: 293T-LentiX WEE1-ePL cells, read-out: 293T-LentiX WEE1-ePL Degradation 4 hr (EC50)
- Procedure: To generate LentiX-WEE1-ePL-GSPT1-ND cells for the WEE1 degradation assay, LentiX-HEK293T (Invitrogen) were transduced by lentivirus with a C-terminal ePL-tagged (DiscoverX, Fremont, CA) full-length WEE1 expression construct. […] Cells were selected and maintained in complete DMEM media (DMEM, 10% Heat Inactivated FBS, 400 μg/mL Geneticin, and 1 μg/mL puromycin at 37 C and 5% CO2). Cells were passaged every 3-4 days by reseeding 1×10^6 cells in a T150 flask. […]
experimental endpoint: DC50 (nM)

O=C1CCC(N2Cc3cc(O[C@H]4CCN(Cc5cc6cc(F)ccc6cn5)C4)c(F)cc3C2=O)C(=O)N1 (some centres unmarked) = 14.3
CNc1ncc2cc(CN3CC[C@H](Oc4ccc5c(c4)CN(C4CCC(=O)NC4=O)C5=O)C3)ccc2n1 (some centres unmarked) = 44.8
CC1(C)C[C@@H](c2ccc3cc(CN4CC[C@H](Oc5ccc6c(c5)CN([C@H]5CCC(=O)NC5=O)C6=O)C4)ncc3c2)CCO1 = 1.19
O=C1CCC(N2Cc3cc(O[C@H]4CCN(Cc5cc6ccccc6cn5)C4)ccc3C2=O)C(=O)N1 (some centres unmarked) = 4.05
O=C1CC[C@H](N2Cc3cc(O[C@H]4CCN(Cc5cc(Cl)c6nc(N7CCOCC7)ncc6c5)C4)ccc3C2=O)C(=O)N1 = 2.88
CC#Cc1ncc2cc(CN3CC[C@H](Oc4ccc5c(c4)CN(C4CCC(=O)NC4=O)C5=O)C3)ccc2n1 (some centres unmarked) = 38.9

1: CC1(C)C[C@@H](c2ncc3cc(CN4CC[C@H](Oc5ccc6c(c5)CN(C5CCC(=O)NC5=O)C6=O)C4)ccc3n2)CCO1 (some centres unmarked)
2: O=C1CCC(N2Cc3cc(O[C@H]4CCN(Cc5ccc6nc(N7CCS(=O)(=O)CC7)ncc6c5)C4)ccc3C2=O)C(=O)N1 (some centres unmarked)
stdin: Endpoint returns whichever of 1 and 2 has the numerically higher DC50. Give the label under which the chosen entry appears.
stdout: 1
(1: 43.4 nM, 2: 23.6 nM)
